- assayedTarget: αIIbβ3 (Homo sapiens, UniProt P05106+P08514)
- Sequence (P08514 32-887 limits assumed): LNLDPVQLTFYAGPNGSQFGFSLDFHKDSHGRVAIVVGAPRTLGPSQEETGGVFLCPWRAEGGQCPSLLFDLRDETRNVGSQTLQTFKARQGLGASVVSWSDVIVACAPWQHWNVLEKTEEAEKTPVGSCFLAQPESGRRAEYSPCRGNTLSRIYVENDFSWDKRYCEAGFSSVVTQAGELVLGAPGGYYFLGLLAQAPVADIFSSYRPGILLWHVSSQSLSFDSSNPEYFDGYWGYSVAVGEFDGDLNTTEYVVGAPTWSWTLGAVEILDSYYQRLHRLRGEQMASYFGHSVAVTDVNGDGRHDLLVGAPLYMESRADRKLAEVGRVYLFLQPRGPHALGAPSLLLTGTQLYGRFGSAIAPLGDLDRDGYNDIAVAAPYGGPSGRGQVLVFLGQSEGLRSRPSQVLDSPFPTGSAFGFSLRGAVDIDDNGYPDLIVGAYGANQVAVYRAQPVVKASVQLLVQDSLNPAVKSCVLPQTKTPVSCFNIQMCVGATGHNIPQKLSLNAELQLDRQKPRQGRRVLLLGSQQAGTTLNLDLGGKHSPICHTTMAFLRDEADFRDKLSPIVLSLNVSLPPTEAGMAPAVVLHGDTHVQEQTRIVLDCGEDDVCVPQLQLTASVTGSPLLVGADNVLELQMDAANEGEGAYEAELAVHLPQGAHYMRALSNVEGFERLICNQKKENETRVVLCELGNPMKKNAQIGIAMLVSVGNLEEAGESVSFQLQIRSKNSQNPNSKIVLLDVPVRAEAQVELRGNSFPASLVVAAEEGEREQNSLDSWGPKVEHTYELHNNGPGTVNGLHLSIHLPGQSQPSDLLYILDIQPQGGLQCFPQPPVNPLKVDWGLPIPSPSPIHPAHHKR
- Sequence (P08514 891-1039 partner limits assumed): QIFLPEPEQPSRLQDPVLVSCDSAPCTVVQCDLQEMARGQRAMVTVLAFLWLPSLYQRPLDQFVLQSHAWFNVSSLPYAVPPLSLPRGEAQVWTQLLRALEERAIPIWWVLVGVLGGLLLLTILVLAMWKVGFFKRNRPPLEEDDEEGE
- Sequence (P05106 27-788): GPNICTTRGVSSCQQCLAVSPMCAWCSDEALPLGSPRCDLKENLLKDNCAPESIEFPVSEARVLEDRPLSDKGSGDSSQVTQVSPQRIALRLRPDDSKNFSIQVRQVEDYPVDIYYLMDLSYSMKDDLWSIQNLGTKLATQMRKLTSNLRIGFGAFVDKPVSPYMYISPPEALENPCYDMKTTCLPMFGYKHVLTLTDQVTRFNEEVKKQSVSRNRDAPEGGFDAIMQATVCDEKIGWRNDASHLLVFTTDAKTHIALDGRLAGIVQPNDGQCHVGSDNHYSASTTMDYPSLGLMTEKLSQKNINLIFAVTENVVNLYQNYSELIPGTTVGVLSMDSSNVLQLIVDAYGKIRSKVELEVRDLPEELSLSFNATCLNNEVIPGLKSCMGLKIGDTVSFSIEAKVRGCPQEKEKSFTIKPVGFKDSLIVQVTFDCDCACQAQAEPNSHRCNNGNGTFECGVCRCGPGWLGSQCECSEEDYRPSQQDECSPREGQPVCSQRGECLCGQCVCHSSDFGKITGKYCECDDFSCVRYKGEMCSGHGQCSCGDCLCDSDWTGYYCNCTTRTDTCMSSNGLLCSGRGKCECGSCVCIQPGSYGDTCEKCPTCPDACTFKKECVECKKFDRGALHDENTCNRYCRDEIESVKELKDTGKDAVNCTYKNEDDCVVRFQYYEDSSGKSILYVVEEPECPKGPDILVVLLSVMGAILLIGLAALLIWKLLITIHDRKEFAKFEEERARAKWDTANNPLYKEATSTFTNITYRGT
- protocol: Platelet adhesion to fibrinogen at different Mg2+ concentrations
- Type: cell-based
- recordedConditions: IC50, platelet adhesion to fibrinogen, 1 mM Mg2+, 1 mM Ca2+; mean ± SD, three experiments
measuredMetric: IC50 (nM)
# output: bare number, implied unit nM

Provide IC50 value for the following compound: `NCC(=O)Nc1cccc(-c2nn3c(=O)cc(N4CCNCC4)nc3s2)c1`
290

Origin of measurements: paper PMC3390238
